Measured values drawn from patent US9963439B2 for this set.

# ASSAY SYSTEM: CYP2C8 (Homo sapiens (Human))
# Sequence (P10632 whole entry): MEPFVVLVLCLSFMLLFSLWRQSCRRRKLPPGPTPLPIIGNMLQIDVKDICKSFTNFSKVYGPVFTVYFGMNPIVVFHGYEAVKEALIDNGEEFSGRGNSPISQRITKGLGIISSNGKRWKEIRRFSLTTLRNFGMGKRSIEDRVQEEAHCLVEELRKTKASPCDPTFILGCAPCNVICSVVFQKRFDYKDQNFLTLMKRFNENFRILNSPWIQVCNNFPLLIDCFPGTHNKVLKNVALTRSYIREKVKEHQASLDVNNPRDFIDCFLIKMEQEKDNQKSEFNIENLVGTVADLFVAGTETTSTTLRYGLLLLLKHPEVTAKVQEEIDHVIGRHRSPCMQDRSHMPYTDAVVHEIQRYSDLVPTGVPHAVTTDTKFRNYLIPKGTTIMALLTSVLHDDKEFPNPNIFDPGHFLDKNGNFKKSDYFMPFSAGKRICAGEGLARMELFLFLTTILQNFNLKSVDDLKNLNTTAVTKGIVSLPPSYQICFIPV
# ASSAY REMARKS: Inhibition of CYP2C8 in pooled human liver microsomes (paclitaxel probe)
# Type: in vitro ADME
# CONDITION INFO: bound stated
MEASURED QUANTITY: IC50

Query string: What value of measured IC50 is listed for CC(C(c1ccc(Nc2nc3ccccc3s2)cc1)n1ccnc1)N(C)C (stereo not shown) ?
Result string: > 1 µM

###

# ASSAY SYSTEM: CYP26B1 (Homo sapiens (Human))
# Sequence (Q9NR63 whole entry): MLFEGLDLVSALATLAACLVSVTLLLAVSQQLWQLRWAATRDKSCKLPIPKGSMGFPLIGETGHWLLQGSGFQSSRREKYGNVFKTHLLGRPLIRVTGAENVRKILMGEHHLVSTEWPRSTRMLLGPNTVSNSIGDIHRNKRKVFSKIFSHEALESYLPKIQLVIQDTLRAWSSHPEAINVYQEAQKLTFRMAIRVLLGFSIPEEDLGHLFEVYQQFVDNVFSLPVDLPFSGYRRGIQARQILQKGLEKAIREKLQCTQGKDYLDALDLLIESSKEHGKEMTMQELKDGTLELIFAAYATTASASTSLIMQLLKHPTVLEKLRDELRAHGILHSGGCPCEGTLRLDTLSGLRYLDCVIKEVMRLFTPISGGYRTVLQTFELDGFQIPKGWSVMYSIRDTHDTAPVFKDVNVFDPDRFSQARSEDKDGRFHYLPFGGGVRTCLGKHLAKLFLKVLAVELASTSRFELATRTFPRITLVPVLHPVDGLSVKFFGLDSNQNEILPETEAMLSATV
# ASSAY REMARKS: CYP26B1 inhibition assay (9-cis-4-OH-RA formation from 9-cis-RA, recombinant microsomes)
# Assay type: biochemical
# CONDITION INFO: Table 3, unit inferred; read-out: CYP2681 (CYP26B1, IC50)
Items are presented alongside their recorded IC50.
Answer with a number only, understood to be in µM.

Solved cases below.
* C=C(c1ccc(C(=O)O)cc1)c1cc2c(cc1C)C(C)(C)CCC2(C)C | 4
* CC1(C)CCC(C)(C)c2cc(C3(c4ccc5cc(C(=O)O)ccc5c4)SCCS3)ccc21 [drawing 146] | 1.03

--- query ---
Query string: Please look up its IC50: CC1(C)CCC(C)(C)c2cc(C3(c4ccc(C(=O)O)cc4)OCCO3)ccc21 [drawing 145]
Result string: 14.2
